Provenance of the data: patent US9023814B2

- Target Or Test System: LecA (Pseudomonas aeruginosa)
- Assay Overview: Enzyme-Linked Lectin Assay (ELLA), biotinylated LecA binding to polymeric galactose
- Procedure: Enzyme-Linked Lectin Assay (ELLA) Experiments 96-well plates are covered with polymer presenting galactose (which is the monosaccharide that is bound by LecA). The lectin labelled with biotin is added in presence of competing glycomimetics. IC50 can be measured. More particularly, ELLA experiments were conducted using 96-well microtitre plates (Nunc Maxisorb) coated with polymeric β-D-galactose (5 μg/mL; Lectinity Holding, Inc., Moscow) diluted in carbonate buffer, pH 9.6 (100 μL) for 1 h at 37° C. […]
Entries annotated with measured IC50
Observable: IC50 (µM)

Compound: O=C(Cn1cc(CO)nn1)Nc1ccc(O[C@@H]2O[C@H](CO)[C@H](O)[C@H](O)[C@H]2O)cc1 [Comp. 14]
Observable: IC50
Assay Result: 46

Compound: O=C(CNC(=O)Cn1cc(CO)nn1)NCCO[C@@H]1O[C@H](CO)[C@H](O)[C@H](O)[C@H]1O [Comp. 10]
Observable: IC50
Assay Result: 300

Compound: O=C(Cn1cc(CO)nn1)NCCOCCO[C@@H]1O[C@H](CO)[C@H](O)[C@H](O)[C@H]1O [Comp. 5]
Observable: IC50
Assay Result: 250

---

- Target Or Test System: LecA (Pseudomonas aeruginosa, UniProt Q05097)
- Sequence (Q05097 whole entry): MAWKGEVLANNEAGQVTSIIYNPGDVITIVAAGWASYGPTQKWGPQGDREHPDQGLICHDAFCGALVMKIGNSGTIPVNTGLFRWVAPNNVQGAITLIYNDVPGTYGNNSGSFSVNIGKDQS
- Assay Overview: Enzyme-Linked Lectin Assay (ELLA), biotinylated LecA binding to polymeric galactose
- Measurement Conditions: read-out: IC50 for the inhibition of labelled-LecA binding to a galactosylated polymer (ELLA); biotinylated LecA 0.1 μg/mL, multi-well plate
In plain terms, low IC50, meaning strictly below 5 µM, gives Y, and everything else gives N.

Molecule: CC(C)(C)c1cc2c(OCc3cn(CC(=O)Nc4ccc(OC5OC(CO)C(O)C(O)C5O)cc4)nn3)c(c1)Cc1cc(C(C)(C)C)cc(c1OCc1cn(CC(=O)Nc3ccc(OC4OC(CO)C(O)C(O)C4O)cc3)nn1)Cc1cc(C(C)(C)C)cc(c1OCc1cn(CC(=O)Nc3ccc(OC4OC(CO)C(O)C(O)C4O)cc3)nn1)Cc1cc(C(C)(C)C)cc(c1OCc1cn(CC(=O)Nc3ccc(OC4OC(CO)C(O)C(O)C4O)cc3)nn1)C2 (centres unmarked) [Comp. 29]
Target Or Test System: LecA (Pseudomonas aeruginosa, UniProt Q05097)
Assigned Label: Y
--
Molecule: CC(C)(C)c1cc2c(OCc3cn(CC(=O)NCCOCCOC4OC(CO)C(O)C(O)C4O)nn3)c(c1)Cc1cc(C(C)(C)C)cc(c1OCc1cn(CC(=O)NCCOCCOC3OC(CO)C(O)C(O)C3O)nn1)Cc1cc(C(C)(C)C)cc(c1OCc1cn(CC(=O)NCCOCCOC3OC(CO)C(O)C(O)C3O)nn1)Cc1cc(C(C)(C)C)cc(c1OCc1cn(CC(=O)NCCOCCOC3OC(CO)C(O)C(O)C3O)nn1)C2 (centres unmarked)
Target Or Test System: LecA (Pseudomonas aeruginosa, UniProt Q05097)
Assigned Label: N
--
Molecule: CC(C)(C)c1cc2c(OCc3cn(CC(=O)NCC(=O)NCCOC4OC(CO)C(O)C(O)C4O)nn3)c(c1)Cc1cc(C(C)(C)C)cc(c1OCc1cn(CC(=O)NCC(=O)NCCOC3OC(CO)C(O)C(O)C3O)nn1)Cc1cc(C(C)(C)C)cc(c1OCc1cn(CC(=O)NCC(=O)NCCOC3OC(CO)C(O)C(O)C3O)nn1)Cc1cc(C(C)(C)C)cc(c1OCc1cn(CC(=O)NCC(=O)NCCOC3OC(CO)C(O)C(O)C3O)nn1)C2 (centres unmarked) [Comp. 25]
Target Or Test System: LecA (Pseudomonas aeruginosa, UniProt Q05097)
Assigned Label: N
--
Molecule: CC(C)(C)c1cc2c(OCc3cn(CC(=O)NCC(=O)NCCOC4OC(CO)C(O)C(O)C4O)nn3)c(c1)Cc1cc(C(C)(C)C)cc(c1OCc1cn(CC(=O)NCC(=O)NCCOC3OC(CO)C(O)C(O)C3O)nn1)Cc1cc(C(C)(C)C)cc(c1OCc1cn(CC(=O)NCC(=O)NCCOC3OC(CO)C(O)C(O)C3O)nn1)Cc1cc(C(C)(C)C)cc(c1OCc1cn(CC(=O)NCC(=O)NCCOC3OC(CO)C(O)C(O)C3O)nn1)C2 (centres unmarked) [Comp. 21]
Target Or Test System: LecA (Pseudomonas aeruginosa, UniProt Q05097)
Assigned Label: N

---

- Target Or Test System: LecA (Pseudomonas aeruginosa, UniProt Q05097)
- Assay Overview: Enzyme-Linked Lectin Assay (ELLA), biotinylated LecA binding to polymeric galactose
- Measurement Conditions: read-out: IC50 for the inhibition of labelled-LecA binding to a galactosylated polymer (ELLA); biotinylated LecA 0.1 μg/mL, multi-well plate
Observable: IC50 (µM)

Compound: CC(C)(C)c1cc2c(OCc3cn(CC(=O)NCC(=O)NCCOC4OC(CO)C(O)C(O)C4O)nn3)c(c1)Cc1cc(C(C)(C)C)cc(c1OCc1cn(CC(=O)NCC(=O)NCCOC3OC(CO)C(O)C(O)C3O)nn1)Cc1cc(C(C)(C)C)cc(c1OCc1cn(CC(=O)NCC(=O)NCCOC3OC(CO)C(O)C(O)C3O)nn1)Cc1cc(C(C)(C)C)cc(c1OCc1cn(CC(=O)NCC(=O)NCCOC3OC(CO)C(O)C(O)C3O)nn1)C2 (centres unmarked) [Comp. 23]
Unit Info: µM
Assay Result: 7

Compound: CC(C)(C)c1cc2c(OCc3cn(CC(=O)Nc4ccc(OC5OC(CO)C(O)C(O)C5O)cc4)nn3)c(c1)Cc1cc(C(C)(C)C)cc(c1OCc1cn(CC(=O)Nc3ccc(OC4OC(CO)C(O)C(O)C4O)cc3)nn1)Cc1cc(C(C)(C)C)cc(c1OCc1cn(CC(=O)Nc3ccc(OC4OC(CO)C(O)C(O)C4O)cc3)nn1)Cc1cc(C(C)(C)C)cc(c1OCc1cn(CC(=O)Nc3ccc(OC4OC(CO)C(O)C(O)C4O)cc3)nn1)C2 (centres unmarked) [Comp. 27]
Unit Info: µM
Assay Result: 0.8

---

- Target Or Test System: LecA (Pseudomonas aeruginosa, UniProt Q05097)
- Assay Overview: biochemical
- Format: binding
Observable: IC50 (µM)

Compound: O=C(CNC(=O)Cn1cc(CO)nn1)NCCO[C@@H]1O[C@H](CO)[C@H](O)[C@H](O)[C@H]1O [Comp. 10]
Assay Result: 60

Compound: O=C(Cn1cc(CO)nn1)Nc1ccc(O[C@@H]2O[C@H](CO)[C@H](O)[C@H](O)[C@H]2O)cc1 [Comp. 14]
Assay Result: 2.6

Compound: O=C(Cn1cc(CO)nn1)NCCOCCO[C@@H]1O[C@H](CO)[C@H](O)[C@H](O)[C@H]1O [Comp. 5]
Assay Result: 58.3

---

- Target Or Test System: LecA (Pseudomonas aeruginosa)
- Assay Overview: biochemical
- Assay type: binding
Entries annotated with measured Kd
Observable: Kd (µM)

Compound Structure: O=C(Cn1cc(CO)nn1)Nc1ccc(O[C@@H]2O[C@H](CO)[C@H](O)[C@H](O)[C@H]2O)cc1
Assay Result: 5.8
--
Compound Structure: O=C(CNC(=O)Cn1cc(CO)nn1)NCCO[C@@H]1O[C@H](CO)[C@H](O)[C@H](O)[C@H]1O
Assay Result: 180
--
Compound Structure: O=C(Cn1cc(CO)nn1)NCCOCCO[C@@H]1O[C@H](CO)[C@H](O)[C@H](O)[C@H]1O
Assay Result: 107
